Entry source: PubChem BioAssay (NCATS)

assay: qHTS of pediatric cancer cell lines to identify multiple opportunities for drug repurposing: Primary screen for BT-12 cells (AID 1347101); settings: BT-12 viability, CellTiter-Glo luminescence, 48 h; series mostly up to 57.3 µM; note: nearly all actives have a fitted effect of over 25% in size
Records with an inconclusive call do not appear. Activity calls are given as the source filed them. Calls come from the whole dose curve; as a rule, active = well fitted cell-killing curve with a large enough effect; inconclusive = small, poorly fitted or top-dose-only effect; inactive = flat fitted curve, though single readings scatter.
Please state which outcome applies, choosing from active, inactive

[Q] So what was the verdict on `CCCCOc1c(C(=O)c2c(F)cc(C)cc2F)cnc2n[nH]cc12` in this test?
[A] active

[Q] // param item: `Clc1ccc2ncc(-c3cccc(NC4CNC4)n3)n2c1` ; yields the recorded call
[A] active

* * *

test system: CP266; assay: qHTS profiling for inhibitors of Plasmodium falciparum proliferation (AID 504749); note: nearly all actives have a fitted effect of over 60% in size; conditions: P. falciparum in erythrocytes, SYBR Green DNA, 72 h; series mostly up to 28.7 µM
Records with an inconclusive call do not appear. Active and inactive are the calls of the source. Calls follow the shape of the dose curve; as a rule, active = well fitted inhibition curve with a large enough effect; inconclusive = small, poorly fitted or top-dose-only effect; inactive = flat fitted curve, though single readings scatter.
I would appreciate it if you answered using one of these outcomes: yes = active, no = inactive

Use the examples below as a reference point.
>>> class_name("CCC1=C[C@@H]2CN(C1)Cc1c([nH]c3ccccc13)[C@@](C(=O)OC)(c1cc3c(cc1OC)N(C)[C@@H]1[C@@](O)(C(=O)OC)[C@H](OC(C)=O)[C@]4(CC)C=CCN5CC[C@]31[C@@H]54)C2")
"yes"
>>> class_name("Nc1ccn([C@@H]2CS[C@H](CO)O2)c(=O)n1")
"no"
>>> class_name("CN1c2cc(O)c(N=NC(N)=O)cc2CC1S(=O)(=O)O (centres undefined)")
"no"
>>> class_name("O=C(O)CO.[NH2-].[NH2-].[Pt+2]")
"no"
>>> class_name("Nc1ccn([C@@H]2O[C@H](CO)[C@H](O)C2(F)F)c(=O)n1")
"yes"

[Q] Per the assay record, what outcome was assigned to `Nc1ccc(S(=O)(=O)Nc2ncccn2)cc1` ?
[A] no

[Q] Lab log entry: `COc1cc(C(=O)NS(=O)(=O)c2ccccc2C)ccc1Cc1cn(C)c2ccc(NC(=O)OC3CCCC3)cc12` — outcome as called in the assay?
[A] no

[Q] Any idea what this test logged for COC(=O)C1=C(C)NC(C)=C(C(=O)OCCN2CCN(C(c3ccccc3)c3ccccc3)CC2)C1c1cccc([N+](=O)[O-])c1 (centres undefined) ?
[A] yes

[Q] Answer briefly: the call reported for `CC[C@H]1CN2CCc3cc(OC)c(OC)cc3[C@H]2C[C@@H]1C[C@@H]1NCCc2cc(OC)c(OC)cc21` in this assay.
[A] yes

* * *

test: qHTS Assay for Identification of Small Molecule Antagonists for NFkB Signaling Pathway. (AID 624479); details: NFkB pathway reporter cell assay, antagonist mode; series mostly up to 38.3 µM;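 note: pathway stimulated with TNF alpha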
Activity calls are given as the source filed them. Calls follow the shape of the full dose curve.
Outcomes you can answer with include only these: 1 (active), -1 (inactive)

Answered examples (4):
>>> class_name("CC1(C)OC2=C(C(=O)c3ccccc3C2=O)[C@H](NCc2ccccc2)[C@H]1O")
1
>>> class_name("CC(=O)SC[C@@H](C)C(=O)N1CCC[C@H]1C(=O)N[C@@H](Cc1ccccc1)C(=O)O")
1
>>> class_name("CN1CCC(CNc2ccc3ncc(-c4cccc(OC(F)(F)F)c4)n3n2)CC1")
1
>>> class_name("CCCCN1CCC(CNC(=O)c2c3n(c4ccccc24)CCCO3)CC1")
-1

Would you kindly look at the next entry?
[Q] Write down the call the test reported for this molecule. Item: `CCOc1cc2ncc(C#N)c(Nc3ccc(F)c(Cl)c3)c2cc1NC(=O)C=CCN(C)C`
[A] 1

* * *

experiment: Quantitative High-Throughput drug screen in 47 multiple myeloma cell lines against the NCATS MIPE library collection: JIM1_ECACC cell viability assay (AID 1918964); conditions: JIM1 myeloma viability, CellTiter-Glo ATP luminescence, 48 h; series mostly up to 45.8 µM
Inconclusive results are not listed. Activity calls are given as the source filed them. The call rests on the fitted dose curve; in most records, active means well fitted cell-killing curve with a large enough effect; inconclusive means small, poorly fitted or top-dose-only effect, or effect the other way; inactive means no such curve, though single readings can be large or run the other way.
Write down one outcome, taken from YES (active), NO (inactive)

Use these answered entries as a reference point.
>>> class_name("Cc1c(CN2CCN(S(C)(=O)=O)CC2)sc2c(N3CCOCC3)nc(-c3cnc(N)nc3)nc12")
"YES"
>>> class_name("Cc1c(C)n(Cc2ccc(-c3ccccc3C(=O)O)cc2)c2ccc(C(=O)N[C@@H](C)c3ccc([N+](=O)[O-])cc3)cc12")
"YES"
>>> class_name("COc1cc2c(NC3CCN(C(C)C)CC3)nc(C3CCCCC3)nc2cc1OCCCN1CCCC1")
"YES"
>>> class_name("CN(C)CC=CC(=O)Nc1cc2c(Nc3ccc(F)c(Cl)c3)ncnc2cc1O[C@H]1CCOC1")
"YES"
>>> class_name("COc1ccc(OC)c(-c2nnc3ccc(-c4ccc(OC)c(O[C@@H]5CCOC5)c4)nn23)c1")
"YES"

[Q] # fetch the recorded call for `CC[C@@]1(O)C(=O)OCc2c1cc1n(c2=O)Cc2cc3cc(O)ccc3nc2-1` here
[A] YES

[Q] Which outcome did this test record for the compound CC1(C)CC(=O)c2c(C(F)(F)F)nn(-c3ccc(C(N)=O)c(NC4CCC(OC(=O)CN)CC4)c3)c2C1 (stereo not given) ?
[A] YES

[Q] What is the recorded call for this compound in the test? `Cn1cncc1[C@@](N)(c1ccc(Cl)cc1)c1ccc2c(c1)c(-c1cccc(Cl)c1)cc(=O)n2C`
[A] YES

[Q] Hello, I am checking results. What call was entered for `C[C@H]1C[C@@H]2[C@@H]([C@@H](O)C[C@@]3(C)[C@H]2CC[C@]3(O)C(=O)CO)[C@@]2(C)C=CC(=O)C=C12` ?
[A] NO

[Q] Kindly provide the recorded test outcome for the following compound: CC1(O)CC(c2nc(-c3ccc4ccc(-c5ccccc5)nc4c3)c3c(N)nccn23)C1 (stereo not given)
[A] YES

[Q] For this compound, state the assay outcome: `COC(=O)c1ccc2c(C(=Nc3ccc(N(C)C(=O)CN4CCN(C)CC4)cc3)c3ccccc3)c(O)[nH]c2c1`
[A] YES

[Q] What outcome does the record of this test show for `O=C(CCCCCCNC(=O)c1cnc(N(c2ccccc2)c2ccccc2)nc1)NO` ?
[A] YES

[Q] Please indicate how the test categorized `O=C(CCCCCCC(=O)Nc1ccc([C@H]2O[C@@H](CSc3nc(-c4ccccc4)c(-c4ccccc4)o3)C[C@@H](c3ccc(CO)cc3)O2)cc1)NO` .
[A] NO

[Q] Hi team, can someone confirm the assay call for `Cc1cn2c(-c3cn[nH]c3)cnc2c(Nc2ccc(C(=O)N3CCNCC3)cc2F)n1` ?
[A] YES

[Q] GET /call?item= COc1cc(-c2nn(C3CCC(N4CCN(C(C)=O)CC4)CC3)c3ncnc(N)c23)ccc1NC(=O)c1cc2ccccc2n1C (stereo not given) returns the recorded outcome of this test.
[A] YES

[Q] What was the test verdict on `OCCCNc1cc(-c2ccnc(Nc3cccc(Cl)c3)n2)ccn1` ?
[A] YES

[Q] Which outcome was assigned to `O=C(O)[C@H](Cc1c[nH]c2ccccc12)N1C(=O)c2ccccc2C1=O` in this test?
[A] NO

[Q] Test call, this compound: `Nc1ccn([C@@H]2O[C@H](CO)[C@H](O)C2(F)F)c(=O)n1`
[A] YES

* * *

test system: MCC-26; assay: qHTS assay to identify novel small-molecules to repurpose for Merkel cell carcinoma treatment (AID 1296009); settings: MCC and control cell lines, CellTiter-Glo viability, 72 h; series mostly up to 46 µM; note: nearly all actives have a fitted effect of over 60% in size
Results filed as inconclusive are left out. Calls of active or inactive are those of the source. The call rests on the fitted dose curve; in most records, active means well fitted inhibition curve with a large enough effect; inconclusive means small, poorly fitted or top-dose-only effect; inactive means flat fitted curve, though single readings scatter.
Field 'call' accepts active, inactive

Some solved cases for reference:
>>> class_name("O=C(O)[C@H](Cc1c[nH]c2ccccc12)N1C(=O)c2ccccc2C1=O")
"inactive"
>>> class_name("CCN1CCN(Cc2ccc(-c3cc4c(N[C@H](C)c5ccccc5)ncnc4[nH]3)cc2)CC1")
"active"
>>> class_name("CN1CCN(Cc2ccc(NC(=O)Nc3ccc(Oc4cc(NC(=O)C5CC5)ncn4)cc3)cc2C(F)(F)F)CC1")
"active"
>>> class_name("C1=CCOCc2cc(ccc2OCCN2CCCC2)Nc2nccc(n2)-c2cccc(c2)OCC1")
"active"
>>> class_name("CNC(=O)CN1CCC(Oc2cc3c(Nc4cccc(Cl)c4F)ncnc3cc2OC)CC1")
"active"

Could you now consider this next molecule?
[Q] For `COc1cccc2nc(-c3cccs3)nc(NN3C(=O)C=C(C)C3=O)c12` , which call appears in the assay record?
[A] inactive

* * *

assay: qHTS of pediatric cancer cell lines to identify multiple opportunities for drug repurposing: Confirmatory screen for SK-N-SH cells (AID 1347129); conditions: SK-N-SH neuroblastoma cell viability; series mostly up to 46.1 µM;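 note: cells exposed to compound for 48 h before viability read; nearly all actives have a fitted effect of over 60% in size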
Records with an inconclusive call do not appear. The source made the active and inactive calls. The call rests on the fitted dose curve; in most records, active means well fitted cell-killing curve with a large enough effect; inconclusive means small, poorly fitted or top-dose-only effect; inactive means flat fitted curve, though single readings scatter.
Would you mind answering with one of these outcomes? T = active, F = inactive

>>> class_name("CNC(=O)CN1CCC(Oc2cc3c(Nc4cccc(Cl)c4F)ncnc3cc2OC)CC1")
"F"
>>> class_name("CC(C)c1nn(-c2c(Cl)cccc2Cl)c2nc(Cc3ccc(OCCO)cc3)[nH]c(=O)c12")
"T"
>>> class_name("Cc1cc(Nc2cc(NC(=O)c3c(Cl)cccc3Cl)ccn2)nc(N)n1")
"T"

[Q] Hi, do you know how `NC(=O)Nc1cc(-c2cccc(F)c2)sc1C(=O)N[C@H]1CCCNC1` came out in this test?
[A] T
